System: RPMI-8226 leukemia
test-details: NCI tumour cell line growth inhibition, 48 h
assay-endpoint: TGI

Known results for compounds:
compound	TGI
O=c1[nH]c2cc(Cl)ccc2nc1/C(=N\Nc1ccccc1)C(O)c1ccc(Cl)c(Cl)c1 (stereo unspecified)	> 100 µM
COc1cc2c(cc1OC)C(Cl)C(c1ccc(F)cc1)=C2Cl (stereo unspecified)	39.2 µM

Query :: Look up TGI for this compound: "CCOC(=O)/C(=C/c1ccc(OC)cc1)N(CC)CC"
Result :: > 100 µM

Query :: Look up TGI for this compound: "Cc1[nH]c(=O)nc2sc(=NC3CCCCC3)n(C3CCCCC3)c(=O)c12"
Result :: > 100 µM

Query :: Look up TGI for this compound: C[C@@]1(O)CC[C@]2(C)C3CCCC3[C@H]12 (stereo partly specified)
Result :: > 100 µM

Query :: Look up TGI for this compound: O=C(NC1CCCCC1)NS(=O)(=O)c1ccc(N2N=C3c4ccccc4CC3C2c2ccc(Cl)cc2)cc1 (stereo unspecified)
Result :: 22.6 µM

Query :: Look up TGI for this compound: "Cc1ccc(Nc2nc(NNC(=O)Cc3ccccc3)nc(NNC(=O)c3ccncc3)n2)cc1"
Result :: > 10 µM

Query :: Look up TGI for this compound: COC(=O)c1cccc(C)c1C1CN=NC12Cc1cc(C)cc(C)c1C2=O (stereo unspecified)
Result :: > 100 µM

Query :: Look up TGI for this compound: "O=C1CSC(=S)N1/N=C/c1ccc(Cl)c([N+](=O)[O-])c1"
Result :: > 100 µM

Query :: Look up TGI for this compound: Cc1ccc(NC2=C3CCCCC3OC2=O)cc1 (stereo unspecified)
Result :: > 100 µM

Query :: Look up TGI for this compound: "COc1ccccc1NC(=O)c1cc2cc(Br)ccc2cc1O"
Result :: 4.66 µM

###

Tested on: NCI-H522 lung
test-details: NCI tumour cell line growth inhibition, 48 h
TGI overview
Entry rule: numbers only, all in µM.

Known results for compounds:
compound	result-unit	TGI
Oc1ccc(NCn2c(=S)sc3ccccc32)cc1	µM	40.5
c1ccc(-c2n(Cc3ccc4ccccc4n3)cc[n+]2Cc2ccc3ccccc3c2)cc1	µM	3.42
O=C1c2cccc3cc([N+](=O)[O-])cc(c23)C(=O)N1Nc1ccc([N+](=O)[O-])cc1[N+](=O)[O-]	µM	28.6

Query :: Look up TGI for this compound: "CC(=C(c1ccc(OCCN2CCCCC2)cc1)c1ccc(OCCN2CCCCC2)cc1)c1ccc(Cl)cc1"
Result :: 0.872

Query :: Look up TGI for this compound: O=C(NC1CCCCC1)NS(=O)(=O)c1ccc(N2N=C3c4ccccc4CC3C2c2ccc(Cl)cc2)cc1 (configuration not stated)
Result :: 30.9

Query :: Look up TGI for this compound: COc1cc2c(cc1OC)C(Cl)C(c1ccc(F)cc1)=C2Cl (configuration not stated)
Result :: 21.8

Query :: Look up TGI for this compound: Cc1ccc(C(=O)OC(C(=O)O)C(OC(=O)c2ccc(C)cc2)C(=O)O)cc1 (configuration not stated) (tested in a mixture with another compound)
Result :: 11.4

Query :: Look up TGI for this compound: "COC(=O)/C=C/c1cc(OC(C)=O)c2c(c1)[C@@H](C(=O)OC)[C@H](c1ccc(OC(C)=O)c(OC(C)=O)c1)O2"
Result :: 2.13
